System: Pseudoperonospora cubensis
Assay: Fungicidal activity against Pseudoperonospora cubensis infected in cucumber cv. Sagamihanjiro seedling assessed as reduction in leaf lesion after 4 days by pot test
Type: functional, organism-based
Below, each entry is listed alongside its reported EC50.
All answers are understood in ppm, so give the number only.

Consider the following illustrative entries.
>  <SUBSTANCE SMILES>
Clc1ccc(/N=c2\nc3n(s2)CCS3)cc1

>  <UNIT TEXT>
ppm

>  <EC50>
68.6

$$$$
>  <SUBSTANCE SMILES>
Cc1cc(C)cc(/N=c2\nc(-c3ccc(Cl)cc3)n(C)s2)c1

>  <UNIT TEXT>
ppm

>  <EC50>
26.4

$$$$
>  <SUBSTANCE SMILES>
CN(c1ccccc1)c1n/c(=N\c2ccc(Cl)cc2)sn1C

>  <UNIT TEXT>
ppm

>  <EC50>
37.5

$$$$
>  <SUBSTANCE SMILES>
Cc1cccc(/N=c2\nc(-c3ccc(Cl)cc3)n(C)s2)c1

>  <UNIT TEXT>
ppm

>  <EC50>
26.1

$$$$
>  <SUBSTANCE SMILES>
CSc1n/c(=N\c2ccc(Cl)cc2)sn1C

>  <UNIT TEXT>
ppm

>  <EC50>
94.9

$$$$

Give EC50 only, for C/N=C(/N=c1\snc(-c2ccccc2)n1-c1ccc(Cl)cc1)c1ccccc1 , using Pseudoperonospora cubensis data. 45.3

Give EC50 only, for Cn1s/c(=N/c2ccc(Cl)cc2)nc1-c1ccc(Cl)c(Cl)c1 , using Pseudoperonospora cubensis data. 9.5

Give EC50 only, for Cc1n/c(=N\c2ccc(Cl)cc2)sn1C , using Pseudoperonospora cubensis data. 66.9

Give EC50 only, for Cn1s/c(=N/c2ccc(Cl)cc2)nc1-c1ccco1 , using Pseudoperonospora cubensis data. 8.4

----------
Test system: Pseudoperonospora cubensis
Assay: Fungicidal activity against Pseudoperonospora cubensis infected in cucumber cv. Sagamihanjiro seedling assessed as reduction in leaf lesion after 4 days by pot test
Type: functional, organism-based
Below, each entry is listed alongside its reported log10(EC50).
Form field - Quantity: EC50; Unit: ppm; Scale: log10

Consider the following illustrative entries.
>  <COMPOUND>
Cn1s/c(=N/c2ccc(Br)cc2)nc1-c1ccccc1

>  <TESTED ON>
Pseudoperonospora cubensis

>  <READOUT LABEL>
log10(EC50)

>  <NUMERIC READOUT>
1.25

$$$$
>  <COMPOUND>
CN(C)c1ccc(/N=c2\nc(-c3ccc(Cl)cc3)n(C)s2)cc1

>  <TESTED ON>
Pseudoperonospora cubensis

>  <READOUT LABEL>
log10(EC50)

>  <NUMERIC READOUT>
2.15

$$$$
>  <COMPOUND>
Cn1s/c(=N/c2ccc(Cl)cc2)nc1C(Cl)(Cl)Cl

>  <TESTED ON>
Pseudoperonospora cubensis

>  <READOUT LABEL>
log10(EC50)

>  <NUMERIC READOUT>
1.57

$$$$
>  <COMPOUND>
Cn1s/c(=N/c2ccc(Nc3ccccc3)cc2)nc1-c1ccccc1

>  <TESTED ON>
Pseudoperonospora cubensis

>  <READOUT LABEL>
log10(EC50)

>  <NUMERIC READOUT>
1.91

$$$$
>  <COMPOUND>
Cn1s/c(=N/c2ccccc2-c2ccccc2)nc1-c1ccccc1

>  <TESTED ON>
Pseudoperonospora cubensis

>  <READOUT LABEL>
log10(EC50)

>  <NUMERIC READOUT>
1.48

$$$$

Give log10(EC50) only, for CCn1s/c(=N/c2ccc(Br)cc2)nc1-c1ccccc1 , using Pseudoperonospora cubensis data. 1.85

Give log10(EC50) only, for CCCCc1ccc(/N=c2\nc(-c3ccc(Cl)cc3)n(C)s2)cc1 , using Pseudoperonospora cubensis data. 1.48

Give log10(EC50) only, for CCN(CC)c1n/c(=N\c2ccc(Cl)cc2)sn1C , using Pseudoperonospora cubensis data. 1.12

Give log10(EC50) only, for Cc1ccc(/N=c2\nc(-c3ccc(Cl)cc3)n(C)s2)cc1 , using Pseudoperonospora cubensis data. 0.96

Give log10(EC50) only, for Cn1s/c(=N/c2ccccc2)nc1-c1ccc(Cl)cc1 , using Pseudoperonospora cubensis data. 1.37

Give log10(EC50) only, for Cc1cccc(C)c1/N=c1\nc(-c2ccccc2)n(C)s1 , using Pseudoperonospora cubensis data. 2.11

Give log10(EC50) only, for Cn1s/c(=N/c2ccc(Cl)cc2)nc1-c1ccccc1Cl , using Pseudoperonospora cubensis data. 1.06

These measurements were taken from ChEMBL document CHEMBL3045379.
